test system: H1264; assay: MTT cell viability, H1264; type: cell-based; details: 96 h; Adenosquamous lung cell line H1264; 4 days incubation
property: pIC50
Please express pIC50 as -log10 of the molar concentration.

Give the reported value of pIC50 for this record: C[C@H](C(=O)N[C@@H](Cc1ccc(-c2ccccc2)cc1)C(=O)NC1CC(C)(C)NC(C)(C)C1)c1ccc(-c2ccccc2)c(F)c1 6.20

----------
test system: UMSCC22A; assay: MTT cell viability, UMSCC22A; type: cell-based; conditions: Head and neck cancer cell line UMSCC22A
property: IC50 (nM)
Response body: numeric value in nM, unit text excluded.

For the molecule C[C@H](C(=O)N[C@@H](Cc1ccc(-c2ccccc2)cc1)C(=O)NC1CC(C)(C)NC(C)(C)C1)c1ccc(-c2ccccc2)c(F)c1 [GCBH-110] , give its measured IC50 value. 430

----------
test system: head and neck cancer cell lines; experiment: MTT cell viability, panel of head and neck cancer cell lines; format: cell-based; conditions: span over 14 head and neck cancer cell lines, Table 2, FIGS. 3 and 4; read-out: IC50 values
pIC50: −log10 of the molar value.
property: pIC50

Retrieve pIC50 measured for C[C@H](C(=O)N[C@@H](Cc1ccc(-c2ccccc2)cc1)C(=O)NC1CC(C)(C)NC(C)(C)C1)c1ccc(-c2ccccc2)c(F)c1 and print it. 5.70 to 6.70

----------
tested on: H322C; assay: MTT cell viability, H322C; type: cell-based; conditions: 96 h; Adenocarcinoma lung cell line H322C; 4 days incubation
property: IC50
Write the figure, then the unit, nothing else.

Read off the recorded IC50 for C[C@H](C(=O)N[C@@H](Cc1ccc(-c2ccccc2)cc1)C(=O)NC1CC(C)(C)NC(C)(C)C1)c1ccc(-c2ccccc2)c(F)c1 [GCBH-110] 0.45 µM

----------
test system: MSK921; experiment: MTT cell viability, MSK921; type: cell-based; conditions: Head and neck cancer cell line MSK921
property: IC50
Express the reported value numerically, then name its unit.

Identify measured IC50 associated with C[C@H](C(=O)N[C@@H](Cc1ccc(-c2ccccc2)cc1)C(=O)NC1CC(C)(C)NC(C)(C)C1)c1ccc(-c2ccccc2)c(F)c1 [GCBH-110] 0.77 µM

----------
# IC50 annotations
test system: H2122; assay: MTT cell viability, H2122 lung carcinoma cell line; assay type: cell-based; conditions: Homo sapiens, NCI-H2122; IC50 values for the H2122 lung carcinoma cell line, Table 5; read-out: H2122 In vitro
Reply with just the number (in nM).

Sample records with IC50:
molecule | measured-target | IC50 / nM
CC(C(=O)N[C@@H](CC1CCCCC1)C(=O)NC1CC(C)(C)NC(C)(C)C1)c1ccc(-c2ccccc2)c(F)c1 (stereo partly drawn) | H2122 | 2300
CC(C(=O)N[C@@H](Cc1cccnc1)C(=O)NC1CC(C)(C)NC(C)(C)C1)c1ccc(-c2ccccc2)c(F)c1 (stereo partly drawn) | H2122 | 1400
CC(C(=O)N[C@@H](Cc1ccc(OCc2c(Cl)cccc2Cl)cc1)C(=O)NC1CC(C)(C)NC(C)(C)C1)c1ccc(-c2ccccc2)c(F)c1 (stereo partly drawn) | H2122 | 4000
CC(C(=O)N[C@H](C(=O)NC1CC(C)(C)NC(C)(C)C1)C(c1ccccc1)c1ccccc1)c1ccc(-c2ccccc2)c(F)c1 (stereo partly drawn) | H2122 | 1200

State, in one line, measured IC50 of C[C@H](C(=O)N[C@@H](Cc1ccc(F)cc1)C(=O)NC1CC(C)(C)NC(C)(C)C1)c1ccc(-c2ccccc2)c(F)c1 2500

Name the recorded IC50 of the molecule listed here: C[C@H](C(=O)N[C@@H](Cc1ccc(N(CCCl)CCCl)cc1)C(=O)NC1CC(C)(C)NC(C)(C)C1)c1ccc(-c2ccccc2)c(F)c1 3800

----------
System: WM375
Assay: MTT cell viability, WM375
Format: cell-based
Settings: Melanoma cell line WM375
From the text: The ability of the flurbiprofen analog compounds of the invention to inhibit cancer cell growth and survival (viability) in a variety of cancer lines was examined in a standard MTT assay for cell viability, as detailed in Example 2. The results for the several cell lines above were also consistent with IC50 values measured for two melanoma cell lines shown in Table 4 below. […]
property: IC50
Write down the value, and be sure its unit follows.

Fill in IC50 for record C[C@H](C(=O)N[C@@H](Cc1ccc(-c2ccccc2)cc1)C(=O)NC1CC(C)(C)NC(C)(C)C1)c1ccc(-c2ccccc2)c(F)c1 280 nM

----------
Tested on: H2122
Experiment: MTT cell viability, H2122 lung carcinoma cell line
Type: cell-based
Conditions: IC50 values for the H2122 lung carcinoma cell line, Table 5; read-out: H2122 In vitro
Experimental: The ability of the flurbiprofen analog compounds of the invention to inhibit cancer cell growth and survival (viability) in a variety of cancer lines was examined in a standard MTT assay for cell viability, as detailed in Example 2. The IC50 values given in Tables 1-4 were measured using the B1031 ([…]) compound) shown in Section IIB above. […]
property: IC50 (µM)
Write the value in µM as a bare number.

Tell me measured IC50 for CC(C(=O)N[C@@H](Cc1ccc(OCc2c(Cl)cccc2Cl)cc1)C(=O)NC1CC(C)(C)NC(C)(C)C1)c1ccc(-c2ccccc2)c(F)c1 (some centres unmarked) [GCBH-112] please. 1.6

Fill in reported IC50 for this entry: CC(C(=O)N[C@@H](Cc1ccc(OCc2c(Cl)cccc2Cl)cc1)C(=O)NCCCN1CCN(C)CC1)c1ccc(-c2ccccc2)c(F)c1 (some centres unmarked) [GCBH-102] 8

----------
system: head and neck cancer cell lines; experiment: MTT cell viability, panel of head and neck cancer cell lines; assay type: cell-based; conditions: another panel of head and neck cancer cell lines, longer treatment exposure, FIG. 4; read-out: concentrations causing 50% cell death
pIC50: −log10 of the molar value.
property: pIC50

Return the recorded pIC50 value; entry: C[C@H](C(=O)N[C@@H](Cc1ccc(-c2ccccc2)cc1)C(=O)NC1CC(C)(C)NC(C)(C)C1)c1ccc(-c2ccccc2)c(F)c1 6.10 to 6.70

----------
tested on: Panc-504; experiment: MTT cell viability, Panc-504; assay type: cell-based; conditions: Pancreatic cancer cell, 96 h; Pancreatic cancer cells Panc-504; 4 days incubation
property: pIC50
Recall that pIC50 is obtained by taking minus log10 of the concentration measured in molar.

Give recorded pIC50. C[C@H](C(=O)N[C@@H](Cc1ccc(-c2ccccc2)cc1)C(=O)NC1CC(C)(C)NC(C)(C)C1)c1ccc(-c2ccccc2)c(F)c1 [GCBH-110] 6.80

----------
system: H1703; assay: MTT cell viability, H1703; format: cell-based; details: Homo sapiens, NCI-H1703, 96 h; Adenosquamous lung cell line H1703; 4 days incubation
property: IC50 (nM)
Quick note: give the figure in nM, leave out the unit.

# return IC50 for C[C@H](C(=O)N[C@@H](Cc1ccc(-c2ccccc2)cc1)C(=O)NC1CC(C)(C)NC(C)(C)C1)c1ccc(-c2ccccc2)c(F)c1 , test system: H1703 360

----------
system: H157; assay: MTT cell viability, H157; format: cell-based; conditions: Homo sapiens, NCI-H157, 96 h; Squamous lung cell line H157; 4 days incubation
property: IC50 (nM)
Write the value in nM as a bare number.

// fetch IC50; item: C[C@H](C(=O)N[C@@H](Cc1ccc(-c2ccccc2)cc1)C(=O)NC1CC(C)(C)NC(C)(C)C1)c1ccc(-c2ccccc2)c(F)c1 ; system: H157 210

----------
system: CaLu3; experiment: MTT cell viability, CaLu3; type: cell-based; details: Homo sapiens, Calu-3, 96 h; Adenocarcinoma lung cell line CaLu3; 4 days incubation
property: IC50
// unit must come after the numeric part

Consider the compound C[C@H](C(=O)N[C@@H](Cc1ccc(-c2ccccc2)cc1)C(=O)NC1CC(C)(C)NC(C)(C)C1)c1ccc(-c2ccccc2)c(F)c1 [GCBH-110] . State its measured IC50. 1300 nM
